# TARGET_UNDER_TEST: NADPH oxidase 1 (Homo sapiens)
# TEST_SUMMARY: inhibitors of human NADPH oxidase 1 (Nox1) (AID 1792)
# CONDITION_PARAMETERS: HT29 cells, luminol chemiluminescence ROS; at 6.7 µM
The campaign covered roughly 16,000 compounds. About 130 (0.81%) were called active. Rule as the data show it: active = inhibition above about 75%; inactive = the rest. The list comes from a sample in which actives are over-represented; it also holds close analogues and randomly drawn compounds.
# output must be one of True (active), False (inactive)

CCOC(=O)/C(=N/Nc1ccccc1)C(C)=N    False

Request: Entry Clc1ccc(-c2csc(N/N=C\c3ccn[nH]3)n2)cc1 : call = ?
Response: False

Request: I'd appreciate the recorded outcome for COc1ccc(Cc2nnc(SC)[nH]c2=O)cc1 from this test.
Response: False

Request: Please let me know the test result on file for Cc1nnsc1C(=O)N/N=C/c1ccccc1Cl .
Response: False

* * *

# TARGET_UNDER_TEST: NADPH oxidase 1 (Homo sapiens) (UniProt Q9Y5S8)
# Sequence (Q9Y5S8 whole entry, looked up): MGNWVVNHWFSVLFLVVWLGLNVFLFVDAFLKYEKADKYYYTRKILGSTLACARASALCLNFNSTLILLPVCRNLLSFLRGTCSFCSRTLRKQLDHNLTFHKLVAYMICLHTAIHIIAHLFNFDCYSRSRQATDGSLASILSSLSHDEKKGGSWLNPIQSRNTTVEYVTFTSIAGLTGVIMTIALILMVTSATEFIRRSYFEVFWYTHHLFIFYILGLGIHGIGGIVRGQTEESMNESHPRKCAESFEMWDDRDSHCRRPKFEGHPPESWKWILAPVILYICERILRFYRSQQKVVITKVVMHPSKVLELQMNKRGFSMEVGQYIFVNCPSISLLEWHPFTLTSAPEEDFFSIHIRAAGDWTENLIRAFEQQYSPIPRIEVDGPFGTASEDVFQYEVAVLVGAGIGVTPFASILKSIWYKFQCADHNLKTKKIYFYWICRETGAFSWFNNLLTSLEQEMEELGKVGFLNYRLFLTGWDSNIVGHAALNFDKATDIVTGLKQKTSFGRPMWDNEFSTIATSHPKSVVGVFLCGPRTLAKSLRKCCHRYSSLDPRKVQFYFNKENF
# TEST_SUMMARY: inhibitors of human NADPH oxidase 1 (Nox1) (AID 1792)
# CONDITION_PARAMETERS: HT29 cells, luminol chemiluminescence ROS; at 6.7 µM; stronger effect = higher value
Out of some 16,000 compounds screened, about 130 (0.81%) were called active. What follows is part of a selection rich in actives, with near analogues and random picks from the rest.
RECORDED_ENDPOINT: inhibition (%)
State the answer as a number, implicitly in %.

The following compounds have reported results that may help.
Cc1ccc(NC(=S)C(C#N)C(=O)N2CCCC2)c(C)c1 (configuration not stated)    -73.4
Cc1oc(-c2ccc(Cl)cc2)cc1C(=O)N1CCN(Cc2ccccc2)CC1    -19.5
Cc1cc(C(=O)NNC(=O)c2cc(C)n(C(C)(C)C)n2)no1    -45.9
CC(C)(C)c1cc(NC(=O)/C(C#N)=C/c2cccc(Cl)c2Cl)c(C(N)=O)s1    -9.18
NC(=O)c1ccc(-c2csnn2)cc1    -4.63
O=S(=O)(c1ccc2c(c1)OCCO2)N1CCN(c2ccc(C(F)(F)F)cn2)CC1    -13.2
CC1CN=C(N(Cc2cccnc2)C(=O)Nc2ccc(Cl)c(Cl)c2)S1 (configuration not stated)    11.1
O=C(NCc1ccc2c(c1)OCO2)c1cccc2c1OCCCO2    -22.4

Request: Requested read-out: inhibition. Entry: OC(c1ccncc1)c1c[nH]c2ccccc12 (configuration not stated)
Response: -46.2

Request: # get_value(readout='inhibition', item= N#Cc1cn(-c2cccc(C(F)(F)F)c2)c(=O)n(Cc2ccc(Cl)cc2)c1=O )
Response: 11.4

Request: # inhibition lookup, item O=C(NCc1cccnc1)Nc1cccc(NC(=O)NCc2cccnc2)c1F
Response: -23.7

Request: Need inhibition, item O=C1CCCCC(=O)c2ccccc2N1
Response: -36.9

Request: Quick one: inhibition for COc1ccc(NC(=O)C2CC(C)=C(C)CC2C(=O)O)c(N2CCOCC2)n1 (configuration not stated) ?
Response: -11.6

* * *

# TARGET_UNDER_TEST: NADPH oxidase 1 (Homo sapiens) (UniProt Q9Y5S8)
# TEST_SUMMARY: inhibitors of human NADPH oxidase 1 (Nox1) (AID 1792)
# CONDITION_PARAMETERS: HT29 cells, luminol chemiluminescence ROS; at 6.7 µM; stronger effect = higher value
Among all 16,000 compounds or so, about 130 (0.81%) were called active. This excerpt belongs to a sample that is enriched for actives.
Assign class by inhibition: not lower than -40% means YES; lower than -40% means NO.

CC(C)(C)c1csc(Sc2ccc([N+](=O)[O-])cc2[N+](=O)[O-])n1    NO
Cc1nc(-n2cccc2)sc1C(=O)N/N=C/c1ccccc1Cl    YES
CSc1n[nH]c(=O)n1-c1cccc(C(F)(F)F)c1    YES
O=C(Nc1ccccc1)N1CCN(Cc2ccccc2)CC1    YES
COc1ccc(/C(C)=N/Nc2c([N+](=O)[O-])cc(C(F)(F)F)cc2[N+](=O)[O-])cc1CC#N    YES

Request: Check this compound for inhibition at or above -40%: Cc1ccc(CSC(=N)N)cc1
Response: YES
